Molecular target: T1, orthogonal hCD122 receptor (hoRb), hCD122 with H133D and Y134F (human, UniProt P14784 27-550)
T1 sequence: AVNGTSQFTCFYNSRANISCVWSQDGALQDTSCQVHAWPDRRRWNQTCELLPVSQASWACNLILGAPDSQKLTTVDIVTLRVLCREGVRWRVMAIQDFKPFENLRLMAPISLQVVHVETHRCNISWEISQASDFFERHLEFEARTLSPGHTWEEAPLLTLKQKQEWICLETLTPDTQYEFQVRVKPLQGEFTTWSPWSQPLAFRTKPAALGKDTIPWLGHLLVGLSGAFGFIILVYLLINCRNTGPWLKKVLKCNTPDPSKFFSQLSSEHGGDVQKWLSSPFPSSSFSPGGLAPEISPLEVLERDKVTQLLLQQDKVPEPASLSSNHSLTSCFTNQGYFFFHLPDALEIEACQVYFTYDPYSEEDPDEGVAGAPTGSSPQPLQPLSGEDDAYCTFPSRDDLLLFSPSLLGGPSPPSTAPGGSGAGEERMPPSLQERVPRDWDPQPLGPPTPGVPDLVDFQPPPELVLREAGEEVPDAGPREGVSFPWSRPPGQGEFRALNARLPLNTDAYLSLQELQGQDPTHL
Experiment: cell-based or functional assay
experimental endpoint: 3F8 Ortho Proliferation Signal 1:50 (cts/min)

binder	experimental endpoint	unit name	observed
SQVLKT (ligand) APTSSSTKKTQLQLSQLLVLLKTILNGINNYKNPKLTRMLTFKFYMPKKATELKHLQCLEEELKPLEEVLNLAQSKNFHLRPRDLISNINVIVLELKGSETTFMCEYADETATIVEFLNRWITFCQSIISTLT	3F8 Ortho Proliferation Signal 1:50	cts/min	28500

1: T3D, SQVLKA (ligand) APDSSSTKKTQLQLSQLLVLLKAILNGINNYKNPKLTRMLTFKFYMPKKATELKHLQCLEEELKPLEEVLNLAQSKNFHLRPRDLISNINVIVLELKGSETTFMCEYADETATIVEFLNRWITFCQSIISTLT
2: SQVLWA (ligand) APTSSSTKKTQLQLSQLLVLLWAILNGINNYKNPKLTRMLTFKFYMPKKATELKHLQCLEEELKPLEEVLNLAQSKNFHLRPRDLISNINVIVLELKGSETTFMCEYADETATIVEFLNRWITFCQSIISTLT
## Input Looking at 1 and 2 , which one comes out lower in 3F8 Ortho Proliferation Signal 1:50 terms? Give the chosen item's label as your response.
## Output 2
(2: 714 cts/min, 1: 13400 cts/min)

Values from patent US20210196796A1
